test system: OVCAR-5 ovarian; test: NCI tumour cell line growth inhibition, 48 h
Below, each entry is listed with its recorded TGI.

Known results for compounds:
| compound | observed |
| --- | --- |
| CCNC(=S)NNC(=O)c1ccccc1Nc1ccccc1C(=O)NNC(=S)NCC | > 100 µM |
| COc1ccc(/C=C/C(=O)c2ccc(Br)cc2)cc1 | > 100 µM |
| C=CCOC(=O)Cn1ccc(=O)[nH]c1=O | > 100 µM |

Form: compound = Brc1ccc(-c2cc3c(cc2C2SCCS2)OCO3)cc1 ; TGI = > 100 µM

###

test system: MALME-3M melanoma; experiment: NCI tumour cell line growth inhibition, 48 h; in the data active means GI50 below about 0.43 µM; inactive means the rest
Valid outcomes are listed here; reply with one: active, inactive

Consider the following illustrative entries.
| molecularString | discreteLabel |
| --- | --- |
| N#Cc1c(N)nc(N2CCOCC2)c(C#N)c1-c1c(Cl)cccc1Cl | inactive |
| CC(=O)c1c(C)c2cnc(Nc3ccc(N4CCNCC4)cn3)nc2n(C2CCCC2)c1=O | inactive |

Moving on to the next compound.
Problem: For CC12O[C@H](C[C@@H](OC(=O)CCC(=O)O)[C@H]1O)n1c3ccccc3c3c4c(c5c6ccccc6n2c5c31)C(=O)NC4=O , what call appears in the results of this test?
Solution: active

###

system: HCT-15 colon; test: NCI tumour cell line growth inhibition, 48 h; in the data active means GI50 below about 0.43 µM; inactive means the rest
Please state which outcome applies, choosing from TRUE = active, FALSE = inactive

Please review the entries below; each comes with its answer.
| compound | discreteLabel |
| --- | --- |
| CC/C=C\C[C@H]1C/C=C2/C(=O)C(Cl)=C[C@@H]2C/C=C\CCCC(=O)O1 | TRUE |
| COc1ccc(-c2[nH]ncc2Nc2cc(OC)c(OC)c(OC)c2)cc1 | FALSE |

Problem: Which outcome was entered for the compound Oc1[nH]c2ccccc2c1C=Nc1ccc(-n2cncn2)cc1 in this test?
Solution: FALSE

Problem: Status in this test for COc1cc(C(=O)n2nc(N)c3c(C)cc(C)nc32)cc(OC)c1OC ?
Solution: FALSE

Problem: Query: recorded result category for CC(C)(C)[Si](C)(C)OC1[C@@H](COC(=O)NC(=O)CCl)O[C@@H](n2cnc3c(N)ncnc32)[C@H]1O[Si](C)(C)C(C)(C)C (some centres not stated) in this test
Solution: FALSE

###

tested on: SK-MEL-2 melanoma; experiment: NCI tumour cell line growth inhibition, 48 h
The label depends only on TGI: true (1) if it is at least 30 µM, false (0) if it is smaller.

Problem: Identify whether the reported TGI of the following compound is 30 µM or greater: CC(=O)CC(=O)Nc1ccccc1C(F)(F)F
Solution: true (1)

Problem: Could you please find out whether N#CC1=C(N)N(/N=C/c2ccco2)C(c2ccco2)C1(C#N)C#N (centres undefined) has TGI that meets 30 µM or exceeds it?
Solution: true (1)

Problem: Does CN(C)c1ccc2[nH]c3c(C(N)=O)cc(=O)c(=O)c=3oc2c1 have a reported TGI of at least 30 µM?
Solution: false (0)

Problem: Would you say O=C1Nc2ccc(Br)cc2/C1=N/N1C(=O)C(=O)N(C2CCCCC2)C1=S shows TGI at minimum 30 µM?
Solution: false (0)

Problem: Entry CC(=O)c1c(C)c2cnc(Nc3ccc(N4CCNCC4)cn3)nc2n(C2CCCC2)c1=O : is its TGI no less than 30 µM?
Solution: false (0)

Problem: Hi, just wondering whether Cc1nc2ccc(NC3OCC(O)C(O)C3O)cc2c(=O)n1-c1ccccc1 (centres undefined) shows TGI of 30 µM or higher.
Solution: true (1)

Problem: In plain terms: is recorded TGI at least 30 µM for Cc1cc(O)c2c(c1)C(C1c3cccc(O)c3C(=O)c3c(O)cc(C)cc31)c1cccc(O)c1C2=O (centres undefined) ?
Solution: false (0)

Problem: Is TGI at least 30 µM? Consider CN1CCN(c2nc(N)c(Br)c(Cl)n2)CC1
Solution: true (1)
